System: AB wild-type zebrafish embryos
Type: in vivo
Conditions: 96 h exposure, read-out: LC50 (Danio rerio) AB-WT
Give LC50 for every item shown.
Kindly answer with a numeric value in µM, unit omitted.

Look up LC50 for this compound: N.N.O=C([O-])C1(C(=O)[O-])CCC1.[Pt+2] [carboplatin, reference compound]
10

What does the data say about its LC50? Entry: Cc1ccc(S(=O)(=O)[N]2[Os][NH][C@H](c3ccccc3)[C@H]2c2ccccc2)cc1.c1ccc(-c2ccccc2)cc1 [Complex 7, [Os(biphenyl)(Ts-DPEN)]]
3.5

Return reported LC50; argument: Cc1ccc(C(C)C)cc1.[NH-]C(c1ccccc1)C([N-]S(=O)(=O)c1ccc([N+](=O)[O-])cc1)c1ccccc1.[Os+2] (centres unmarked) [Complex 3, [Os(p-cymene)(Ns-DPEN)]]
3.9

# LC50 lookup, item Cc1ccc(C(C)C)cc1.O=S(=O)(c1ccc(F)cc1)[N]1[Os][NH][C@H](c2ccccc2)[C@H]1c1ccccc1 [Complex 4, [Os(p-cymene)(Fb-DPEN)]]
3

Request the reported LC50 associated with CS(=O)(=O)[N]1[Os][NH][C@H](c2ccccc2)[C@H]1c1ccccc1.Cc1ccc(C(C)C)cc1 [Complex 2, [Os(p-cymene)(Ms-DPEN)]]
2.8

Given the entry CN(C)c1ccc(N=Nc2ccccn2)cc1.Cc1ccc(C(C)C)cc1.F[P-](F)(F)(F)(F)F.[I][Os+] [Complex 10, [Os(Azpy-NMe2)(p-cymene)I]PF6] , report its measured LC50.
16.8

Sample CN(C)c1ccc(N=Nc2ccccn2)cc1.F[P-](F)(F)(F)(F)F.[Cl][Os+].c1ccc(-c2ccccc2)cc1 [Complex 11, [Os(Azpy-NMe2)(biphenyl)Cl]PF6] — what was its LC50?
12

LC50 lookup needed for F[P-](F)(F)(F)(F)F.Oc1ccc(N=Nc2ccccn2)cc1.[I][Os+].c1ccc(-c2ccccc2)cc1 [Complex 13, [Os(Azpy-OH)(biphenyl)I]PF6] , thanks.
7.4

Quick check: LC50 of Cc1ccc(C(C)C)cc1.Cc1ccc(S(=O)(=O)[N-]C(c2ccccc2)C([NH-])c2ccccc2)cc1.[Os+2] (centres unmarked) [Complex 1, [Os(p-cymene)(Ts-DPEN)]] ?
4.3

Report LC50 for CN(C)c1ccc(N=Nc2ccccn2)cc1.F[P-](F)(F)(F)(F)F.[I][Os+].c1ccc(-c2ccccc2)cc1 [Complex 12, [Os(Azpy-NMe2)(biphenyl)I]PF6] please.
7.7

Requested read-out: LC50. Entry: CN(C)c1ccc(N=Nc2ccccn2)cc1.Cc1ccc(C(C)C)cc1.F[P-](F)(F)(F)(F)F.[Cl][Os+] [Complex 9, [Os(Azpy-NMe2)(p-cymene)Cl]PF6]
14

Values were extracted from paper PMC6204601.
